studySystem: human RIPK1 (1-375) (Homo sapiens)
Construct: human RIPK1 (1-375) gene; GST; made in house; host or cells: Sf-9 insect cells
Sequence (Q13546 1-375): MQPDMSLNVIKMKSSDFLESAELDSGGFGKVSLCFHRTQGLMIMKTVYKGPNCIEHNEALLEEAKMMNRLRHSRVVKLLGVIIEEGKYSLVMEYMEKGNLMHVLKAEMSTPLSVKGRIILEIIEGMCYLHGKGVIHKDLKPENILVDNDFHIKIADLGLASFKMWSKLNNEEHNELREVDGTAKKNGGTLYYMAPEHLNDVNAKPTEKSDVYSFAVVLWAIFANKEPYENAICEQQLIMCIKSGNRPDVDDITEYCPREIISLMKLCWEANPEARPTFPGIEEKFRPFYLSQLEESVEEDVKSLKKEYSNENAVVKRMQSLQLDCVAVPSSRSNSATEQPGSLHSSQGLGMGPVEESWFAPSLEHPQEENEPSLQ
assayInfo: Human RIPK1 enzyme inhibitory effect (ADP-Glo Kinase Assay)
Type: biochemical
conditionLabel: read-out: human RIPK1 enzyme inhibitory effect at 10 μM (% inhibition), 10 μM test compound; well without enzyme = 100% inhibition
Readings of inhibition at 10 µM for the listed compounds
assayReadout: inhibition at 10 µM (%)

>  <compound>
CN1C(=O)C(n2ccc3cn(Cc4ccccc4)nc3c2=O)CCc2ccccc21 (centres unmarked)

>  <assayReadout>
inhibition at 10 µM

>  <observedResult>
96

$$$$
>  <compound>
CN1C(=O)[C@@H](N2CCn3nc(Cc4ccccc4)nc3C2=O)COc2ccccc21

>  <assayReadout>
inhibition at 10 µM

>  <observedResult>
98

$$$$
>  <compound>
CN1C(=O)[C@@H](N2CCc3c(nn(Cc4ccccc4)c3Cl)C2=O)COc2cc(-c3ccn(C)n3)c(F)cc21

>  <assayReadout>
inhibition at 10 µM

>  <observedResult>
101

$$$$
>  <compound>
CN1C(=O)[C@@H](N2CCc3c(nn(Cc4ccccc4)c3Cl)C2=O)COc2ccccc21

>  <assayReadout>
inhibition at 10 µM

>  <observedResult>
97

$$$$
>  <compound>
CN1C(=O)[C@@H](N2CCc3cn(Cc4c(Cl)cccc4C#N)nc3C2=O)COc2ccccc21

>  <assayReadout>
inhibition at 10 µM

>  <observedResult>
99

$$$$
>  <compound>
CN1C(=O)[C@@H](N2CCc3c(nn(Cc4cnccn4)c3Cl)C2=O)COc2cc(Cl)ccc21

>  <assayReadout>
inhibition at 10 µM

>  <observedResult>
101

$$$$
>  <compound>
CN1C(=O)[C@@H](N2CCc3cn(Cc4ccccc4)nc3C2=O)COc2ccc(C#N)cc21

>  <assayReadout>
inhibition at 10 µM

>  <observedResult>
100

$$$$
>  <compound>
CNC(=O)c1ccc2c(c1)OC[C@H](N1CCc3c(nn(Cc4ccccc4F)c3Cl)C1=O)C(=O)N2C

>  <assayReadout>
inhibition at 10 µM

>  <observedResult>
101

$$$$
